Quick reference: GI50 of the listed items.
tested on: A375—NRASQ^61K cells (cell line A375.11); test: CTGlo (CellTiter-Glo 2.0) Cell Viability Assay; type: cell-based; conditions: 96 hours; IP; read-out: CTGlo A375.11 96 hours IP
Measurement type: GI50

INSERT INTO assay_data (compound, measurement_type, data_value) VALUES
  ('CCN(C)S(=O)(=O)Nc1ccc(F)c(Oc2ccc3ncn([C@@H]4COC5(CCN(C(=O)CN6CCC(c7ccc(C8CCC(=O)NC8=O)cc7OS(C)(=O)=O)CC6)CC5)C4)c(=O)c3c2)c1C#N (stereo partly shown) [drawing 1182]', 'GI50', '> 10 µM'),
  ('CCN(C)S(=O)(=O)Nc1ccc(F)c(Oc2ccc3ncn([C@H]4COC5(CCN(C(=O)CN6CCC(c7ccc(OC8CCC(=O)NC8=O)cc7OS(C)(=O)=O)CC6)CC5)C4)c(=O)c3c2)c1C#N (stereo partly shown) [drawing 1184]', 'GI50', '> 10 µM'),
  ('CCN(C)S(=O)(=O)Nc1ccc(F)c(Oc2ccc3ncn([C@H]4COC5(CCN(C(=O)CN6CCC(c7ccc(N8CCC(=O)NC8=O)cc7OS(C)(=O)=O)CC6)CC5)C4)c(=O)c3c2)c1C#N [drawing 1174]', 'GI50', '1 to 10 µM'),
  ('CCN(C)S(=O)(=O)Nc1ccc(F)c(Oc2ccc3ncn([C@@H]4COC5(CCN(C(=O)CN6CCC(c7ccc(OC8CCC(=O)NC8=O)cc7OS(C)(=O)=O)CC6)CC5)C4)c(=O)c3c2)c1C#N (stereo partly shown) [drawing 1187]', 'GI50', '> 10 µM'),
  ('CCN(C)S(=O)(=O)Nc1ccc(F)c(Oc2ccc3ncn([C@H]4COC5(CCN(C(=O)CN6CCC(c7ccc(NC8CCC(=O)NC8=O)cc7OS(C)(=O)=O)CC6)CC5)C4)c(=O)c3c2)c1C#N (stereo partly shown) [drawing 1176]', 'GI50', '1 to 10 µM'),
  ('CCN(C)S(=O)(=O)Nc1ccc(F)c(Oc2ccc3ncn([C@@H]4COC5(CCN(C(=O)CN6CCC(c7ccc(N8CCC(=O)NC8=O)cc7OS(C)(=O)=O)CC6)CC5)C4)c(=O)c3c2)c1C#N [drawing 1173]', 'GI50', '1 to 10 µM'),
  ('CCN(C)S(=O)(=O)Nc1ccc(F)c(Oc2ccc3ncn([C@@H]4COC5(CCN(C(=O)CN6CCC(c7ccc(NC8CCC(=O)NC8=O)cc7OS(C)(=O)=O)CC6)CC5)C4)c(=O)c3c2)c1C#N (stereo partly shown) [drawing 1188]', 'GI50', '> 10 µM');
